assay: Hemolysis assay; assay type: cell-based, human; settings: human, washed human red blood cells (RBC suspension), pH 7.2; 400 µg·mL^−1; 24 h, 37 °C; free chrysin solution in DMSO (5%); read-out: Percentage of Hemolysis
readout: hemolysis at 24 h, 400 µg·mL^−1 (%)
Quick note: give the figure in %, leave out the unit.

In: Give the measured hemolysis at 24 h, 400 µg·mL^−1 of O=c1cc(-c2ccccc2)oc2cc(O)cc(O)c12 [chrysin, 5,7-dihydroxyflavone] .
Out: 7.9

----------
test: Hemolysis assay; format: cell-based, human; details: human, washed human red blood cells (RBC suspension), pH 7.2; 100 µg·mL^−1; 24 h, 37 °C; free chrysin solution in DMSO (5%); read-out: Percentage of Hemolysis
readout: hemolysis at 24 h, 100 µg·mL^−1
Please answer in the form of a number followed by its unit of measurement.

In: Give the measured hemolysis at 24 h, 100 µg·mL^−1 of O=c1cc(-c2ccccc2)oc2cc(O)cc(O)c12 [chrysin, 5,7-dihydroxyflavone] .
Out: 6.8%
